Please respond with reported IC50 for every item in the list.
tested on: SKBR3 (PI3Kα-Wild Type) cell line; test: HTRF phospho-AKT(S473) cell assay in SKBR3 cells; assay type: cell-based, human; conditions: Homo sapiens, SK-BR-3; SKBR3 (PI3Kα-Wild Type) cells, HTRF phospho-AKT(S473), 2 hours compound incubation, PDGF-BB stimulated

Solved cases (2 shown):
Prompt line: So what does the record say about IC50 for Cc1cc([C@@H](C)Nc2ccc(Cl)cc2C(=O)NS(C)(=O)=O)c2nc(N3Cc4ccc(F)cc4C3)n(C)c(=O)c2c1 ?
Response line: 1 to 5 µM

Prompt line: So what does the record say about IC50 for Cc1cc([C@@H](C)Nc2ccc(Cl)nc2C(=O)NS(C)(=O)=O)c2nc(N3CCC(c4ccc(C)nc4)CC3)n(C)c(=O)c2c1 ?
Response line: 1 to 5 µM

Turning to the following molecule.
Prompt line: So what does the record say about IC50 for C[C@@H](Nc1ccc(Cl)nc1C(=O)NS(C)(=O)=O)c1cc(F)cc2c(=O)n(C)c(N3C[C@@H]4[C@H](C3)[C@H]4c3ccn(C)n3)nc12 ?
Response line: 1 to 5 µM
